experimental.protocol: Therapeutic index, ratio of CC50 for human HEL cells to EC50 for Varicella zoster virus
Type: cell-based
assay.setup: read-out: Ratio CC50/EC50
measured.parameter: selectivity ratio

The compound listed as O=S1(=O)C=C(OCc2ccccc2)C(Cc2ccccc2)(Cc2ccccc2)O1 shows selectivity ratio equal to ≤ 4

The compound listed as CCC1(Cc2ccccc2)OS(=O)(=O)C=C1OCc1ccccc1 (racemic) shows selectivity ratio equal to ≥ 5

---

Tested on: Human betaherpesvirus 5
experimental.protocol: Antiviral activity against foscarnet-resistant HCMV AD169 clone C infected in HEL cells assessed as inhibition of virus-induced cytopathicity
Assay type: functional, organism-based
assay.setup: Human betaherpesvirus 5, AD169, HEL
pEC50: −log10 of the molar value.
Label Condition met when pEC50 is at or above 7; otherwise label Condition not met.

Q: Check the entry O=C(O)P(=O)(O)O : does pEC50 equal or exceed 7?
Ans: Condition not met

Q: Check the entry Nc1ccn(C[C@@H](CO)OCP(=O)(O)O)c(=O)n1 : does pEC50 equal or exceed 7?
Ans: Condition met

Q: Check the entry CCC1(Cc2ccccc2)OS(=O)(=O)C=C1OCc1ccc(Cl)cc1 (racemic) : does pEC50 equal or exceed 7?
Ans: Condition not met

Q: Check the entry Nc1nc(N)c2ncn(CCOCP(=O)(O)O)c2n1 : does pEC50 equal or exceed 7?
Ans: Condition not met

Q: Check the entry Nc1ncnc2c1ncn2C[C@@H](CO)OCP(=O)(O)O : does pEC50 equal or exceed 7?
Ans: Condition met

---

I'd appreciate it if you could supply selectivity ratio values for the items below.
experimental.protocol: Therapeutic index, ratio of CC50 for human HEL cells to EC50 for Human cytomegalovirus
Format: cell-based
assay.setup: read-out: Ratio CC50/EC50

The molecule listed as O=S1(=O)C=C(OCc2ccccc2)C(Cc2ccccc2)(Cc2ccccc2)O1 shows selectivity ratio equal to ≤ 4

The molecule listed as CCC1(Cc2ccccc2)OS(=O)(=O)C=C1OCc1ccccc1 (racemic) shows selectivity ratio equal to ≥ 5

---

Tested on: Human betaherpesvirus 5
experimental.protocol: Antiviral activity against cidofovir HCMV AD169 clone 5 infected in human HEL cells assessed as inhibition of virus-induced cytopathicity
Assay type: functional, organism-based
assay.setup: Human betaherpesvirus 5, AD169, HEL
measured.parameter: EC50 (µM)
Only the number, expressed in µM, is required.

The molecule listed as O=C(O)P(=O)(O)O shows EC50 equal to 11

The molecule listed as Nc1nc(N)c2ncn(CCOCP(=O)(O)O)c2n1 shows EC50 equal to 3.5

The molecule listed as CCC1(Cc2ccccc2)OS(=O)(=O)C=C1OCc1ccc(Cl)cc1 (racemic) shows EC50 equal to 11

The molecule listed as Nc1ccn(C[C@@H](CO)OCP(=O)(O)O)c(=O)n1 shows EC50 equal to 1

The molecule listed as Nc1nc2c(ncn2COC(CO)CO)c(=O)[nH]1 shows EC50 equal to 4

The molecule listed as Nc1ncnc2c1ncn2C[C@@H](CO)OCP(=O)(O)O shows EC50 equal to 2.1

---

experimental.protocol: Cytotoxicity against human HEL cells assessed as reduction of growth after 3 days
Assay type: cell-based
measured.parameter: CC50 at 72 h (µM)
Only the number, expressed in µM, is required.

The compound listed as CCCC1(Cc2ccccc2)OS(=O)(=O)C=C1OCc1ccccc1 (racemic) shows CC50 at 72 h equal to 200

The compound listed as CCC1(Cc2ccccc2)OS(=O)(=O)C=C1OCCc1ccccc1 (racemic) shows CC50 at 72 h equal to 48

The compound listed as O=S1(=O)C=C(OCc2ccccc2)C2(CCc3ccccc3C2)O1 (racemic) shows CC50 at 72 h equal to 131

The compound listed as CCC1(Cc2ccccc2)OS(=O)(=O)C=C1OCc1ccccc1 (racemic) shows CC50 at 72 h equal to 200

The compound listed as CCC1(Cc2ccccc2)OS(=O)(=O)C=C1OCc1ccccc1Cl (racemic) shows CC50 at 72 h equal to 38

The compound listed as Nc1ccn(C[C@@H](CO)OCP(=O)(O)O)c(=O)n1 shows CC50 at 72 h equal to 74

The compound listed as O=S1(=O)C=C(OCc2ccccc2)C(Cc2ccccc2)(Cc2ccccc2)O1 shows CC50 at 72 h equal to 200

The compound listed as CCC1(CC)OS(=O)(=O)C=C1OCc1ccccc1 shows CC50 at 72 h equal to 200
